tested on: TGGAGA cognate hairpin (biotinylated) (DNA, hairpin) CCTTGGAGAGTTTTCTCTCCAAGG; assay: SPR, global kinetic fit; settings: 50 mM NaCl; 10 mM HEPES, 1 mM EDTA, pH 7.4, 0.05% P20, 25 °C
Field: log10 KD. Provide a value for each of the compounds that follow.
Scale: log10; quantity: KD; unit before log: nM

Previously resolved entries follow.
STRUCTURE SMILES: CN(CCCN)CCCNC(=O)CCNC(=O)c1cc(NC(=O)c2cc(NC(=O)CCNC(=O)c3cc(NC(=O)CCCNC(=O)c4nc(NC(=O)CCNC(=O)c5nc(NC(=O)c6nccn6C)cn5C)cn4C)cn3C)cn2C)cn1C
log10 KD: 1.27
--
STRUCTURE SMILES: CN(CCCN)CCCNC(=O)CCNC(=O)c1cc(NC(=O)c2cc(NC(=O)CCNC(=O)c3cc(NC(=O)CCCNC(=O)c4nc(NC(=O)c5cc(NC(=O)c6nc(NC(=O)c7nccn7C)cn6C)cn5C)cn4C)cn3C)cn2C)cn1C
log10 KD: 0.41
--
STRUCTURE SMILES: CN(CCCN)CCCNC(=O)CCNC(=O)c1cc(NC(=O)c2cc(NC(=O)c3cc(NC(=O)c4cc(NC(=O)CCCNC(=O)c5nc(NC(=O)c6cc(NC(=O)c7nc(NC(=O)c8nccn8C)cn7C)cn6C)cn5C)cn4C)cn3C)cn2C)cn1C
log10 KD: 0.30
--
STRUCTURE SMILES: CN(C)CCCNC(=O)CCNC(=O)c1cc(NC(=O)CCNC(=O)c2cc(NC(=O)c3cc(NC(=O)CCCNC(=O)c4nc(NC(=O)c5cc(NC(=O)c6nc(NC(=O)c7nccn7C)cn6C)cn5C)cn4C)cn3C)cn2C)cn1C
log10 KD: 1.56
--
STRUCTURE SMILES: CN(CCCN)CCCNC(=O)CCNC(=O)c1cc(NC(=O)CCNC(=O)c2cc(NC(=O)c3cc(NC(=O)CCCNC(=O)c4nc(NC(=O)CCNC(=O)c5nc(NC(=O)c6nccn6C)cn5C)cn4C)cn3C)cn2C)cn1C
log10 KD: 1.42

Please look at the items below and tell me log10 KD for each one, in order.
1. CN(C)CCCNC(=O)CCNC(=O)c1cc(NC(=O)c2cc(NC(=O)c3cc(NC(=O)c4cc(NC(=O)CCCNC(=O)c5nc(NC(=O)CCNC(=O)c6nc(NC(=O)c7nccn7C)cn6C)cn5C)cn4C)cn3C)cn2C)cn1C
2. CN(C)CCCNC(=O)CCNC(=O)c1cc(NC(=O)c2cc(NC(=O)c3cc(NC(=O)c4cc(NC(=O)CCCNC(=O)c5nc(NC(=O)c6cc(NC(=O)c7nc(NC(=O)c8nccn8C)cn7C)cn6C)cn5C)cn4C)cn3C)cn2C)cn1C

1. 1.08
2. 0.40

FYI, the data here is from paper PMC4339220.
